B1: C20orf112 (parent)
chain: YANGGLNYSYRGYGALSSNLQPPA

Variants of: B1
ASSAY_PROCEDURE: protein stability index of a GFP-peptide fusion (GPS, HEK-293T) (PSI 1-6); higher = more stable;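 also: lentivirally expressed fusions sorted by FACS into six bins by GFP to DsRed ratio, PSI derived from sequencing read proportions per bin multiplied by bin number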
RUN_CONDITIONS: c terminus: a fixed tail appended
Listed variants paired with reported protein stability index
No unit in the answer, please; the number alone is enough.

Examples with answers:
• L16K = 1.87
• Y10D = 1.54
• Q21G = 1.21

Now let's try a different one.
Input: Look up protein stability index for this variant: S18R
Output: 2.21
